- Test system: T-47D breast
- Test: NCI tumour cell line growth inhibition, 48 h

>  <Compound>
Cc1ccc(Cl)c(Nc2ccccc2C(=O)O)c1Cl

>  <GI50>
33.4 µM

$$$$
>  <Compound>
NCC1OC(OC2C(CO)OC(OC3C(O)C(N)CC(N)C3OC3OC(CO)C(O)CC3N)C2O)C(N)C(O)C1OC1OC(CO)C(O)C(O)C1O (stereo not given)

>  <GI50>
> 50 µg/mL

$$$$
>  <Compound>
Cn1c(NCC(O)CN2CCCC2)cc(=O)n(C)c1=O (stereo not given)

>  <GI50>
> 100 µM

$$$$
>  <Compound>
O=C(Nc1n[nH]c2nnc(-c3cccnc3)cc12)C1CC1

>  <GI50>
> 12.9 µM

$$$$
>  <Compound>
N#C[Se]CCCNS(=O)(=O)C1CC2C=CC1C2 (stereo not given)

>  <GI50>
2.55 µM

$$$$
>  <Compound>
Cn1cc(C2=C(c3cn(C)c4ccccc34)C(=O)NC2=O)c2ccccc21

>  <GI50>
1.8 µM

$$$$
>  <Compound>
Clc1ccc(OCc2nnc3n2N=C(c2ccc(Cl)cc2Cl)CS3)cc1

>  <GI50>
38.5 µM

$$$$
>  <Compound>
C[C@@H](Oc1ccc(C(=O)NS(=O)(=O)C(C)(C)C)cc1C(F)(F)F)c1ccc(Oc2ccccc2)cn1

>  <GI50>
4.46 µM

$$$$
>  <Compound>
O=C(Nc1ccccc1)c1cc(S(=O)(=O)Nc2nc3ccccc3o2)c(SCc2ccccc2)cc1Cl

>  <GI50>
22.5 µM

$$$$
>  <Compound>
COc1cc(C(=O)Nc2cc(OC)c3ccn(C)c3c2)cc2c1C[C@]1(C)CC[C@@H](O)C(C)(C)[C@H]1O2

>  <GI50>
1.8 µM

$$$$
